# Tested on: Vero E6
# test-details: cell viability relative to DMSO; higher = less toxic
# measurement-parameters: 72 h; 1 nM
reported-endpoint: cell viability
Answer format: number, then unit.

Prompt line: Please look at this compound and report its cell viability: Nc1nc(N)nc(NC2CC2)n1
Response line: 92.8%

Prompt line: Give me measured cell viability, please, for this compound: Cc1c(C)c2c(c(C)c1O)CCC(C)(C)O2
Response line: 93.5%

Prompt line: Note down cell viability recorded for CC(C)[C@@H](CN1CC[C@@](C)(c2cccc(O)c2)[C@@H](C)C1)NC(=O)[C@H]1Cc2ccc(O)cc2CN1
Response line: 99.4%

Prompt line: Supply recorded cell viability for CC(=O)Oc1ccccc1C(=O)Oc1ccccc1C(=O)O here.
Response line: 101%

Prompt line: Supply reported cell viability belonging to this compound: COc1nccc(-c2c(-c3ccc(F)cc3)ncn2C2CCNCC2)n1
Response line: 100%

Prompt line: Find the measured cell viability of CC(C)CCNC(=O)[C@H](CC(C)C)NC(=O)[C@H]1O[C@@H]1C(=O)O and report it.
Response line: 103%

Prompt line: State its cell viability: O=C(O)CCCN1C(=O)c2cccc3cccc(c23)C1=O
Response line: 97%

Prompt line: Complete the entry with cell viability for CC(O)c1cc(C(=O)N[C@@H](C)Cn2ccc(-c3ccc(C#N)c(Cl)c3)n2)n[nH]1 (some centres undefined)
Response line: 95.6%

Prompt line: Recall and state the measured cell viability for Cc1ccc2nc(N)[nH]c(=O)c2c1Sc1ccncc1 .
Response line: 103%

###

Assign cell viability to each entry below.
# Tested on: U2OS
# test-details: cell viability relative to DMSO; higher = less toxic
# measurement-parameters: 72 h; 1 nM
All answers are understood in %, so give the number only.

Prompt line: Note cell viability for the compound shown: CCCCOC(=O)c1ccccc1Nc1cccc(C(F)(F)F)c1 [ufenamate]
Response line: 91.7

Prompt line: Tell us which cell viability value is on record for Cc1ccc2nc(N)[nH]c(=O)c2c1Sc1ccncc1 [nolatrexed]
Response line: 94.3

Prompt line: Hello, please tell me recorded cell viability for this one: Cn1cc(-c2ccc(F)c(C(F)(F)F)c2)nc1C1CCN(c2ncnc3[nH]ncc23)CC1
Response line: 96.9

Prompt line: Quote cell viability reported for CC(C)[C@@]1(NC(=O)[C@@H]2C[C@@H]3c4cccc5[nH]cc(c45)C[C@H]3N(C)C2)O[C@@]2(O)[C@@H]3CCCN3C(=O)[C@H](Cc3ccccc3)N2C1=O [dihydroergocristine] please.
Response line: 96.3

Prompt line: Please look at this compound and report its cell viability: COc1ccc(-c2cc(=O)c3c(OC)c(OC)c(OC)c(OC)c3o2)cc1 [tangeritin]
Response line: 98.5

Prompt line: Give the value of cell viability reported for the following: Nc1ccc(S(N)(=O)=O)cc1 [sulfanilamide]
Response line: 98.8

Prompt line: Fill in reported cell viability for this entry: N=C(Nc1ccccc1)Nc1ccccc1 [diphenylguanidine]
Response line: 98.4

Prompt line: Recall and state the measured cell viability for CC(C)NCC(O)c1ccccc1Cl (centres undefined) [clorprenaline] .
Response line: 94

Prompt line: Dear colleague, please send me the reported cell viability for CC(=O)OC[C@H](N)C(=O)O [O-acetyl-L-serine] when you can.
Response line: 104

Prompt line: Determine from records and report cell viability for Cn1nc(-c2cccc(F)c2)n(C)c1=S [suritozole]
Response line: 98.9

Prompt line: State its cell viability for this compound: Cn1c(=O)c2[nH]cnc2n(C)c1=O [aminophylline]
Response line: 99.1

Prompt line: Check the records and state cell viability for O=C(NOCCO)c1ccc2cncn2c1Nc1ccc(I)cc1F [GDC-0623]
Response line: 95.1

Prompt line: Determine its reported cell viability: Nc1nc(N)c2nc(-c3cccc(O)c3)cnc2n1
Response line: 95.6

Prompt line: Give reported cell viability value for CC1=C(/C=C/C(C)=C/C=C/C(C)=C/C(=O)Nc2ccc(O)cc2)C(C)(C)CCC1 [fenretinide]
Response line: 97.7

Prompt line: Respond only with cell viability recorded for CC(C)C[C@H](NC(=O)CNC(=O)c1cc(Cl)ccc1Cl)B1OC(=O)C(CC(=O)O)(CC(=O)O)O1 [MLN9708]
Response line: 101

Prompt line: Supply cell viability value. Item: C[C@H](Nc1ncnc2[nH]cnc12)c1nc2ccc(F)cc2c(=O)n1-c1ccccc1 [acalisib]
Response line: 109

Prompt line: // fetch cell viability given entry CC(O)(P(=O)(O)O)P(=O)(O)O [etidronic-acid]
Response line: 102

Prompt line: Fill in reported cell viability for this entry: COc1ccc2c(OCc3nnc4ccc(-c5ccccc5)nn34)ccnc2c1 [AMG-208]
Response line: 104

Prompt line: Give recorded cell viability. Cc1ccccc1NC(=N)Nc1ccccc1C [ditolylguanidine]
Response line: 98.8

# credit: the supplement of paper PMC13380429
